Tested on: Escherichia coli
Experimental Protocol: Antimicrobial activity against Escherichia coli DH10B by agar-dilution technique
Format: functional
Run Parameters: K-12 substr. DH10B
Readout: MIC (mg/L)

Give MIC for CC1(C)S[C@@H]2[C@H](NC(=O)[C@H](C(=O)O)c3ccsc3)C(=O)N2[C@H]1C(=O)O [TICARCILLIN]
8

Consider the molecule O=C(Cc1cccs1)N[C@@H]1C(=O)N2C(C(=O)[O-])=C(C[n+]3ccccc3)CS[C@H]12 [CEPHALORIDINE] . State its measured MIC.
0.12

[I] CCN1CCN(C(=O)N[C@@H](C(=O)N[C@@H]2C(=O)N3[C@@H]2SC(C)(C)[C@@H]3C(=O)O)c2ccccc2)C(=O)C1=O [PIPERACILLIN]
[II] CC1(C)S[C@@H]2[C@H](NC(=O)Cc3ccccc3)C(=O)N2[C@H]1C(=O)O [PENICILLIN G]
Given the listed items, does I or II have the lesser reported MIC? Write down the label attached to your selection.
I
(I: 4 mg/L, II: 32 mg/L)

----------
Test system: Escherichia coli
Experimental Protocol: Antimicrobial activity against Escherichia coli BL21(DE3) by agar-dilution technique in presence of beta-lactamase inhibitor clavulanic acid
Assay type: functional
Readout: MIC (µg/mL)

// worked examples, MIC included
Using the record for CO/N=C(\C(=O)N[C@@H]1C(=O)N2C(C(=O)O)=C(COC(C)=O)CS[C@H]12)c1csc(N)n1 , state its measured MIC.
0.06

// Input: CC(C)(O/N=C(\C(=O)N[C@@H]1C(=O)N2C(C(=O)[O-])=C(C[n+]3ccccc3)CS[C@H]12)c1csc(N)n1)C(=O)O . Output its MIC only.
0.06

[P] CO/N=C(\C(=O)N[C@@H]1C(=O)N2C(C(=O)[O-])=C(C[n+]3cccc4c3CCC4)CS[C@H]12)c1csc(N)n1
[Q] CC1(C)S[C@@H]2[C@H](NC(=O)[C@H](N)c3ccc(O)cc3)C(=O)N2[C@H]1C(=O)O
Returns the identifier with the smallest measured MIC among P and Q . # answer = label of selected item
P
(P: 0.06 µg/mL, Q: 1 µg/mL)

----------
Test system: Escherichia coli
Experimental Protocol: Antimicrobial activity against Escherichia coli BL21(DE3) carrying pET9a expressing Bacillus clausii beta-lactamase BCL1 by agar-dilution technique
Type: functional
Readout: MIC (µg/mL)

Reference set (4 entries):
Give the reported value of MIC for this record: CO/N=C(\C(=O)N[C@@H]1C(=O)N2C(C(=O)O)=C(COC(N)=O)CS[C@H]12)c1ccco1 [CEFUROXIME]
2

Indicate its recorded MIC; the molecule in question is CO/N=C(\C(=O)N[C@@H]1C(=O)N2C(C(=O)O)=C(CSc3nc(=O)c(O)nn3C)CS[C@H]12)c1csc(N)n1 [CEFTRIAXONE]
0.06

Name the recorded MIC of the item CC(=O)OCC1=C(C(=O)O)N2C(=O)[C@@H](NC(=O)Cc3cccs3)[C@H]2SC1 [CEPHALOTHIN] in your answer.
16

Return MIC (reported value) for this molecule: O=C(Cc1cccs1)N[C@@H]1C(=O)N2C(C(=O)[O-])=C(C[n+]3ccccc3)CS[C@H]12 [CEPHALORIDINE]
0.06

[I] CO[C@@]1(NC(=O)Cc2cccs2)C(=O)N2C(C(=O)O)=C(COC(N)=O)CS[C@@H]21 [CEFOXITIN]
[II] CO/N=C(\C(=O)N[C@@H]1C(=O)N2C(C(=O)[O-])=C(C[n+]3cccc4c3CCC4)CS[C@H]12)c1csc(N)n1 [CEFPIROME]
Which item exceeds the other in MIC, I or II ? When you have decided, please share the label of that item.
I
(I: 2 µg/mL, II: 0.5 µg/mL)

----------
Tested on: Escherichia coli
Experimental Protocol: Antimicrobial activity against Escherichia coli BL21(DE3) by agar-dilution technique
Type: functional
Readout: MIC (µg/mL)

Provide MIC value for the following compound: O=C(Cc1cccs1)N[C@@H]1C(=O)N2C(C(=O)[O-])=C(C[n+]3ccccc3)CS[C@H]12
0.06

Provide one value: measured MIC of CC(=O)OCC1=C(C(=O)O)N2C(=O)[C@@H](NC(=O)Cc3cccs3)[C@H]2SC1
1

Look up and state reported MIC for CO[C@@]1(NC(=O)C(C(=O)O)c2ccc(O)cc2)C(=O)N2C(C(=O)O)=C(CSc3nnnn3C)CO[C@@H]21 (some centres undefined)
0.25

[A] CO/N=C(\C(=O)N[C@@H]1C(=O)N2C(C(=O)O)=C(CSc3nc(=O)c(O)nn3C)CS[C@H]12)c1csc(N)n1
[B] CC1(C)S[C@@H]2[C@H](NC(=O)[C@H](C(=O)O)c3ccsc3)C(=O)N2[C@H]1C(=O)O
[C] CC1(C)S[C@@H]2[C@H](NC(=O)Cc3ccccc3)C(=O)N2[C@H]1C(=O)O
[D] CO[C@@]1(NC(=O)Cc2cccs2)C(=O)N2C(C(=O)O)=C(COC(N)=O)CS[C@@H]21
Rank the items in ascending order with respect to MIC. Response format: the labels, sorted as the prompt asks.
A, D, B, C
(A: 0.06 µg/mL, D: 0.5 µg/mL, B: 1 µg/mL, C: 2 µg/mL)

[A] CO/N=C(\C(=O)N[C@@H]1C(=O)N2C(C(=O)O)=C(COC(C)=O)CS[C@H]12)c1csc(N)n1
[B] CC1(C)S[C@@H]2[C@H](NC(=O)[C@H](N)c3ccc(O)cc3)C(=O)N2[C@H]1C(=O)O
Just curious, which one has the larger MIC reading, A or B ? Write the label of whichever entry you select.
B
(B: 1 µg/mL, A: 0.06 µg/mL)

----------
Tested on: Escherichia coli
Experimental Protocol: Antimicrobial activity against Escherichia coli DH10B carrying pJIM2246 expressing Bacillus clausii NR beta-lactamase BCL1 by agar-dilution technique in presence of beta-lactamase inhibitor clavulanic acid
Type: functional
Run Parameters: K-12 substr. DH10B
Readout: MIC (µg/mL)

Respond only with MIC recorded for CO/N=C(\C(=O)N[C@@H]1C(=O)N2C(C(=O)[O-])=C(C[n+]3cccc4c3CCC4)CS[C@H]12)c1csc(N)n1 [CEFPIROME]
0.06

Quote MIC reported for CC(C)(O/N=C(\C(=O)N[C@@H]1C(=O)N2C(C(=O)[O-])=C(C[n+]3ccccc3)CS[C@H]12)c1csc(N)n1)C(=O)O [CEFTAZIDIME] please.
0.5

[P] CO/N=C(\C(=O)N[C@@H]1C(=O)N2C(C(=O)O)=C(COC(C)=O)CS[C@H]12)c1csc(N)n1 [CEFOTAXIME]
[Q] CC1(C)S[C@@H]2[C@H](NC(=O)[C@H](N)c3ccc(O)cc3)C(=O)N2[C@H]1C(=O)O [AMOXICILLIN]
Which entry has a larger number for MIC, P or Q ? // return label of chosen record
Q

----------
System: Escherichia coli
Experimental Protocol: Antimicrobial activity against Escherichia coli BL21(DE3) carrying pET9a expressing Bacillus clausii beta-lactamase BCL1 by agar-dilution technique in presence of beta-lactamase inhibitor clavulanic acid
Format: functional
Readout: MIC (µg/mL)

Consider the reported MIC for these molecules:
Kindly indicate its recorded MIC. Item: CO/N=C(\C(=O)N[C@@H]1C(=O)N2C(C(=O)O)=C(COC(C)=O)CS[C@H]12)c1csc(N)n1
0.06

Give the reported MIC for this molecule. CC(C)(O/N=C(\C(=O)N[C@@H]1C(=O)N2C(C(=O)[O-])=C(C[n+]3ccccc3)CS[C@H]12)c1csc(N)n1)C(=O)O
0.06

[a] CO/N=C(\C(=O)N[C@@H]1C(=O)N2C(C(=O)[O-])=C(C[n+]3cccc4c3CCC4)CS[C@H]12)c1csc(N)n1
[b] CC1(C)S[C@@H]2[C@H](NC(=O)[C@H](N)c3ccc(O)cc3)C(=O)N2[C@H]1C(=O)O
Lab note: record which item had the higher MIC, a or b . Please indicate the selected item by its label.
b
(b: 2 µg/mL, a: 0.06 µg/mL)

----------
System: Escherichia coli
Experimental Protocol: Antimicrobial activity against Escherichia coli DH10B by agar-dilution technique
Type: functional
Run Parameters: K-12 substr. DH10B
Readout: MIC (µg/mL)

[1] CO[C@@]1(NC(=O)C(C(=O)O)c2ccc(O)cc2)C(=O)N2C(C(=O)O)=C(CSc3nnnn3C)CO[C@@H]21 (some centres undefined) [MOXALACTAM]
[2] CO/N=C(\C(=O)N[C@@H]1C(=O)N2C(C(=O)[O-])=C(C[n+]3cccc4c3CCC4)CS[C@H]12)c1csc(N)n1 [CEFPIROME]
[3] CC1(C)S[C@@H]2[C@H](NC(=O)[C@H](N)c3ccc(O)cc3)C(=O)N2[C@H]1C(=O)O [AMOXICILLIN]
Arrange the items listed above so that MIC rises from first to last. Output spec: labels arranged per the requested ranking.
2, 1, 3

[I] CC(=O)OCC1=C(C(=O)O)N2C(=O)[C@@H](NC(=O)Cc3cccs3)[C@H]2SC1 [CEPHALOTHIN]
[II] CO/N=C(\C(=O)N[C@@H]1C(=O)N2C(C(=O)O)=C(COC(C)=O)CS[C@H]12)c1csc(N)n1 [CEFOTAXIME]
# min-compare on MIC between I and II // output: label of the selected item
II

[A] CO/N=C(\C(=O)N[C@@H]1C(=O)N2C(C(=O)O)=C(CSc3nc(=O)c(O)nn3C)CS[C@H]12)c1csc(N)n1 [CEFTRIAXONE]
[B] CO[C@@]1(NC(=O)Cc2cccs2)C(=O)N2C(C(=O)O)=C(COC(N)=O)CS[C@@H]21 [CEFOXITIN]
Hey, between A and B which has a smaller measured MIC? I would appreciate it if you answered with the label of your choice.
A

Reference source: ChEMBL document CHEMBL1137660
